- test_target: human TLR9 (Homo sapiens, UniProt Q9NR96)
- Sequence (Q9NR96 26-1032): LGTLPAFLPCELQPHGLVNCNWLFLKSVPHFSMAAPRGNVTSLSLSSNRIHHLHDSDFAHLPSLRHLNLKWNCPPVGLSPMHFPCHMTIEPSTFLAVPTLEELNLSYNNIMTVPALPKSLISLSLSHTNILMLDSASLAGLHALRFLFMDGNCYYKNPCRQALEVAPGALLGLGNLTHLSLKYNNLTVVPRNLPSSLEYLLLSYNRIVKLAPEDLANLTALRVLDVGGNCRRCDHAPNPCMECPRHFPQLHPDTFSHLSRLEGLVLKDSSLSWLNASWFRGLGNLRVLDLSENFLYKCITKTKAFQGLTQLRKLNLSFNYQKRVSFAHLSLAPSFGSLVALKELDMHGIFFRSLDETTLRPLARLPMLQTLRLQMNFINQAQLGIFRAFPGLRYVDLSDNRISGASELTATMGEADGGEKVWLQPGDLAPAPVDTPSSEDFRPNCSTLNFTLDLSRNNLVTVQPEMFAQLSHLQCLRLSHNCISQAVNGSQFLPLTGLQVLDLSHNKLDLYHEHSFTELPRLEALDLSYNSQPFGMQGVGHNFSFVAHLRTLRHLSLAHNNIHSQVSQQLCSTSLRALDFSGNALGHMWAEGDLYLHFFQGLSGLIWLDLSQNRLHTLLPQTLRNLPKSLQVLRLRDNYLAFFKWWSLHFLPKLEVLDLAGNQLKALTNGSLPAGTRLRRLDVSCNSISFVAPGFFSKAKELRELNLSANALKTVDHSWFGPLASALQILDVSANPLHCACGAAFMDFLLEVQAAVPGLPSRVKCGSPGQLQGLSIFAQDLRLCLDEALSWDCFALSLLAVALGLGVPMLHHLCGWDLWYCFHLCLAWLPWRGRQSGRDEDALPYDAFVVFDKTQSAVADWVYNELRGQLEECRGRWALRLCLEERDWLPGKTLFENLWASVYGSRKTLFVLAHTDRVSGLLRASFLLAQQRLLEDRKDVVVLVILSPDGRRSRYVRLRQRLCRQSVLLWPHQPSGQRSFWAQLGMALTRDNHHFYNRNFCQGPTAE
- assay: TLR9 inhibition reporter assay (HEK-Blue cells, SEAP reporter, ODN2006 stimulation)
- assay_setup: HEK-Blue cells overexpressing human TLR9, SEAP reporter, ODN2006 5 nM
Hi! Just check whether IC50 is below 1000 nM. Below gives 1 (yes), equal or above gives 0 (no).

# strict comparison: is reported IC50 < 1000 nM? input = COc1cc(-c2[nH]c3ccc(C4CCCN(C5CCOCC5)C4)cc3c2C(C)C)cn2ncnc12 (stereo not shown)
0 (no)

Entry COc1cc(-c2[nH]c3ccc(C4CCCN(C(C)C)C4)cc3c2C(C)C)cn2ncnc12 (single isomer, unassigned) [Example 239] please
0 (no)

Entry Cc1cc(-c2[nH]c3ccc(C4CN(C5CCOC(C)(C)C5)C4)cc3c2C(C)C)cn2ncnc12 (stereo not shown) please
0 (no)

Entry "Cc1cc(-c2[nH]c3ccc(C4CNC4)cc3c2C(C)C)cc(C)n1" please
1 (yes)

Entry COc1cc(-c2[nH]c3ccc(C4CCC(N(C)C(C)C)C4)cc3c2C(C)C)cn2ncnc12 (single isomer, unassigned) [Example 276] please
1 (yes)

Entry COc1cc(-c2[nH]c3ccc(C4CCCN(C(=O)C5CCN(C)CC5)C4)cc3c2C(C)C)cn2ncnc12 (stereo not shown) please
0 (no)

Entry "Cc1c(-c2[nH]c3ccc(C4CNC4)cc3c2C(C)C)cn2cnnc2c1C" please
0 (no)
